Record form. Attribute: LPS % cell toxicity. Fill in for each entry.
tested on: primary rat microglia; conditions: rat
Structures can show the parent of a compound that is named as a salt.
One number for each entry, in %.

>>> observedresult("CC[N+](CC)(CC(=O)Nc1c(C)cccc1C)Cc1ccccc1 [Denatonium Benzoate]")
0
>>> observedresult("CN[C@@H]1[C@@H](O)[C@@H](O[C@@H]2[C@@H](O)[C@H](O[C@H]3OC(CN)=CC[C@H]3N)[C@@H](N)C[C@H]2N)OC[C@]1(C)O [Sisomicin Sulfate]")
0
>>> observedresult("CCCCNC(=O)NS(=O)(=O)c1ccc(C)cc1 [Tolbutamide]")
0

For each of the molecules below, state LPS % cell toxicity.
1. CC(C)(C#N)c1cc(Cn2cncn2)cc(C(C)(C)C#N)c1
2. C[C@H](N[C@@H](CCc1ccccc1)C(=O)O)C(=O)N1Cc2ccccc2C[C@H]1C(=O)O
3. OC(CNCC(O)C1CCc2cc(F)ccc2O1)C1CCc2cc(F)ccc2O1 (centres unmarked)
4. CC(=O)NO [Acetohydroxamic Acid]
5. CN(C)C(=S)SSC(=S)N(C)C
6. C[C@@H](c1ncncc1F)[C@](O)(Cn1cncn1)c1ccc(F)cc1F
7. O=C(NCCCN1CCOCC1)c1ccc(Cl)cc1 [Eprobemide]

1: 0; 2: 0; 3: 0; 4: 0; 5: 64; 6: 0; 7: 0

====

Record form. Attribute: inhibition at 10 µM. Fill in for each entry.
tested on: fibrin-induced microglia activation; assay: Image-based assay of fibrin-induced microglia activation (HTS and dose response); assay type: cell-based, rat; conditions: Rattus norvegicus, Microglia, primary microglia HTS, fibrin stimulation, cell size >800 μm2 as marker of activation; read-out: Fibrin % inhibition
Structures can show the parent of a compound that is named as a salt.
Numbers only, in %.

// below: answered compounds
>>> observedresult("CC(C)=CC1C(C(=O)OCc2cccc(Oc3ccccc3)c2)C1(C)C (centres unmarked)")
-50
>>> observedresult("C1CCN2C[C@@H]3C[C@@H](CN4CCCC[C@@H]34)[C@H]2C1 [Sparteine Sulfate]")
7
>>> observedresult("Fc1ccc([C@@H]2CCNC[C@H]2COc2ccc3c(c2)OCO3)cc1")
38
>>> observedresult("CCn1cc(C(=O)O)c(=O)c2cnc(N3CCNCC3)nc21")
-27

Tested on fibrin-induced microglia activation: CC(C)(Sc1cc(C(C)(C)C)c(O)c(C(C)(C)C)c1)Sc1cc(C(C)(C)C)c(O)c(C(C)(C)C)c1 . Observed inhibition at 10 µM: 12

====

tested on: primary rat microglia; assay: Cell toxicity (dead cells, size <150 μm2) in LPS assay; details: primary microglia HTS, 10 μM, LPS assay, cell size <150 μm^2 as marker of toxicity
measurementType: LPS % cell toxicity (%)
Answers are plain numbers, in %.

>>> observedresult("CC1=C(CC(=O)O)c2cc(F)ccc2/C1=C\\c1ccc(S(C)(=O)=O)cc1 [Sulindac Sulfone]")
0

For each of the molecules below, state LPS % cell toxicity.
1. NC(N)=O [Urea]
2. COc1cnc(NS(=O)(=O)c2ccc(N)cc2)nc1 [Sulfameter]
3. C[C@]12CC[C@H]3[C@@H](CC[C@@]45O[C@@H]4C(O)=C(C#N)C[C@]35C)[C@@H]1CC[C@@H]2O [Trilostane]
4. CC(=O)N(c1onc(C)c1C)S(=O)(=O)c1ccc(N)cc1 [Sulfisoxazole Acetyl]

[0, 0, 0, 1]

====

Record form. Attribute: LPS % cell toxicity. Fill in for each entry.
test system: primary rat microglia; conditions: rat

>>> observedresult("Clc1ccc2c(c1)C(N1CCNCC1)=Nc1ccccc1O2 [Amoxapine, reference compound]")
"1%"
>>> observedresult("CO[C@H]1/C=C/O[C@@]2(C)Oc3c(C)c(O)c4c(O)c(c(/C=N/N5CCN(C)CC5)c(O)c4c3C2=O)NC(=O)/C(C)=C\\C=C\\[C@H](C)[C@H](O)[C@@H](C)[C@@H](O)[C@@H](C)[C@H](OC(C)=O)[C@@H]1C [Rifampicin]")
"0%"
>>> observedresult("CCOc1cc(NC(C)=O)ccc1C(=O)OC [Ethopabate]")
"0%"

Shift focus to the following entry.
Recorded LPS % cell toxicity (compound O=C(CCCl)NCCc1ccccc1 [Fenaclon] ): 0%

====

tested on: primary rat microglia; test: Cell toxicity (dead cells, size <150 μm2) in LPS assay; settings: primary microglia HTS, LPS stimulation; decreased size (<150 μm^2) as marker of toxicity
Structures can show the parent of a compound that is named as a salt.
Rule: LPS % cell toxicity under 2% gives Not satisfied, otherwise Satisfied.

>>> classlabel("CC(NCCC(c1ccccc1)c1ccccc1)c1ccccc1 (centres unmarked) [Fendiline hydrochloride, reference compound]")
"Not satisfied"
>>> classlabel("NCCc1cc(O)c(O)cc1O [Oxidopamine Hydrochloride]")
"Not satisfied"
>>> classlabel("CCn1nc(C(=O)O)c(=O)c2cc3c(cc21)OCO3 [Cinoxacin]")
"Satisfied"
>>> classlabel("C[C@H](N)[C@H](O)c1cccc(O)c1 [Metaraminol]")
"Not satisfied"
>>> classlabel("CC1(C)O[C@@H]2C[C@H]3[C@@H]4C[C@H](F)C5=CC(=O)CC[C@]5(C)[C@H]4[C@@H](O)C[C@]3(C)[C@]2(C(=O)CO)O1 [Flurandrenolide, reference compound]")
"Satisfied"

Evaluate Cc1cccc(CN2CCN(C(c3ccccc3)c3ccc(Cl)cc3)CC2)c1 (centres unmarked) [Meclizine] : LPS % cell toxicity at minimum 2%?
Not satisfied

Evaluate CC(=O)OC[C@H]1O[C@@H]([S-])[C@H](OC(C)=O)[C@@H](OC(C)=O)[C@@H]1OC(C)=O.CCP(CC)CC.[Au+] [Auranofin] : LPS % cell toxicity at minimum 2%?
Satisfied

====

Record form. Attribute: LPS % cell toxicity. Fill in for each entry.
system: primary rat microglia; settings: rat
Counter-ions that a name gives are not always drawn.
Answers are plain numbers, in %.

// below: answered compounds
>>> observedresult("CC1CCc2c(N3CCC(O)CC3)c(F)cc3c(=O)c(C(=O)O)cn1c23 (stereo not drawn)")
0
>>> observedresult("Clc1ccc(C(c2ccccc2Cl)C(Cl)Cl)cc1 (stereo not drawn)")
0
>>> observedresult("CCCN(CCC)C(=O)C(CCC(=O)O)NC(=O)c1ccccc1 (stereo not drawn) [Proglumide]")
0
>>> observedresult("CC[C@H]1OC(=O)[C@H](C)[C@@H](O[C@H]2C[C@@](C)(OC)[C@@H](O)[C@H](C)O2)[C@H](C)[C@@H](O[C@@H]2O[C@H](C)C[C@H](N(C)C)[C@H]2O)[C@](C)(O)C[C@@H](C)[C@@H]2N[C@@H](COCCOC)O[C@H]([C@H]2C)[C@]1(C)O")
1
>>> observedresult("O=c1[nH]c(=O)n([C@H]2C[C@H](O)[C@@H](CO)O2)cc1F")
0
>>> observedresult("CCc1cccc2c3c([nH]c12)C(CC)(CC(=O)O)OCC3 (stereo not drawn)")
1
>>> observedresult("CC(CN1c2ccccc2Sc2ccccc21)N(C)C (stereo not drawn)")
0
>>> observedresult("CNCC(O)c1ccc(O)c(O)c1 (stereo not drawn) [Racepinephrine]")
0
>>> observedresult("CCCN1C[C@H](CSC)C[C@@H]2c3cccc4[nH]cc(c34)C[C@H]21 [Pergolide]")
0
>>> observedresult("CCN(CCCc1ccccc1)CCCc1ccccc1")
0

For each of the compounds below, state LPS % cell toxicity.
1. CC(C)CN(C[C@@H](O)[C@H](Cc1ccccc1)NC(=O)O[C@H]1CCOC1)S(=O)(=O)c1ccc(N)cc1
2. Clc1ccc(Nc2nnc(Cc3ccncc3)c3ccccc23)cc1
3. C[C@H](CCC(=O)O)[C@H]1CC[C@H]2[C@@H]3C(=O)C[C@@H]4CC(=O)CC[C@]4(C)[C@H]3CC(=O)[C@]12C [Dehydrocholic Acid]
4. NC(=O)c1ccc([N+](=O)[O-])cc1Cl [Aklomide]
5. COC(=O)C(c1ccccc1)C1CCCCN1 (stereo not drawn) [Methylphenidate hydrochloride, reference compound]
6. CN[C@H]1CC[C@@H](c2ccc(Cl)c(Cl)c2)c2ccccc21
7. O=C(NCC(O)CO)c1c(I)c(C(=O)NCC(O)CO)c(I)c(N(CCO)C(=O)CO)c1I (stereo not drawn)

0
0
0
0
1
0
1

Recorded LPS % cell toxicity (compound CCN(CC)CCOC(=O)C1(C2CCCCC2)CCCCC1 ): 0

====

Record form. Attribute: IC50. Fill in for each entry.
test system: LPS-induced microglia activation; test: Image-based assay of LPS-induced microglia activation (HTS and dose response); format: cell-based, rat; settings: dose response, LPS-induced microglia activation; read-out: LPS IC50
Numbers only, in µM.

>>> observedresult("O=C1[O][Pt]2([NH][C@@H]3CCCC[C@H]3[NH]2)[O]C1=O [Oxaliplatin, reference compound]")
15

Shift focus to the following entry.
Recorded IC50 (compound CCCOc1ccc2[nH]c(NC(=O)OC)nc2c1 [Oxybendazole, reference compound] ): 12
